Exercise: state measured pIC50 for each of the compounds provided.
biological target: CDK2 (Homo sapiens); construct: High-Throughput Measurement of Cellular Endogenous CDK2; endogenous in cells; host or cells: OVCAR3; assay: Inhibition of CDK2: phospho-Rb (S807/811) HTRF measurement in OVCAR3 cells, 24 h; assay type: cell-based; details: 24 h compound treatment, read-out: pRB_OVCAR3_24h
pIC50: −log10 of the molar value.

Q: Find the recorded pIC50 belonging to CCOC(=O)C1(CN2CCC(c3ccc4c(N5CCC(=O)NC5=O)nn(C)c4c3)CC2)CCN(c2cccc(S(=O)(=O)N3CCC(Nc4ncc(Cl)cn4)CC3)c2)CC1 [Example 141] and report it.
Ans: 5.60 to 6.30

Q: Query Cn1nc(N2CCC(=O)NC2=O)c2ccc(C3CCN(CC4CCN(S(=O)(=O)N5CCC(Nc6ncc(C(F)(F)F)cn6)CC5)CC4)CC3)cc21 [Example 15] next
Ans: 5.60 to 6.30

Q: Moving on to Cn1nc(N2CCC(=O)NC2=O)c2ccc(C3CCN(CC4CCN(c5ccc(S(=O)(=O)N6CCC(Nc7ncc(C(F)(F)F)cn7)CC6)cc5)CC4)CC3)cc21 [Example 165]
Ans: 7.00 to 9.00

Q: Now this one: Cn1nc(N2CCC(=O)NC2=O)c2ccc(C3CCN(CC4CC5(C4)CN(c4cccc(S(=O)(=O)N6CCC(Nc7ncc(Cl)cn7)CC6)c4)C5)CC3)cc21 [Example 132]
Ans: 7.00 to 9.00

Q: Also, Cn1nc(N2CCC(=O)NC2=O)c2ccc(C3CCN(CC4CCN(c5cccc(S(=O)(=O)N6CCC(Nc7ncc(Cl)cn7)CC6)c5)CC4)CC3)c(Cl)c21 [Example 71] please.
Ans: 7.00 to 9.00

Q: Check Cn1nc(N2CCC(=O)NC2=O)c2ccc(C3CCN(Cc4cccc(S(=O)(=O)N5CC(Nc6ncc(C(F)(F)F)cn6)C5)c4)CC3)cc21 [Example 154] too.
Ans: < 5.60
